- System: UO-31
- Assay name: NCI tumour cell line growth inhibition, 48 h
Active and inactive are the calls of the source. Cut-off read from the data, not from the text of the source: active = GI50 up to about 1.1 µM and inactive = higher.
Attribute measured: GI50

> print(dat)
                                   molecule  attribute.measured             reported
1  O=C1O/C(=C(\Br)c2ccc([N+](=O)[O-])cc2)c2ccccc21                GI50   62.8 µM (inactive)
2  Cl/C(=N\c1cccc2ccccc12)N(c1ccccc1)c1ccccc1                GI50  > 100 µM (inactive)
3  CC(=O)c1sc2c(c1OC(=O)c1ccco1)c(=O)n(-c1ccccc1)c(=S)n2-c1ccccc1                GI50   20.3 µM (inactive)

Identify measured GI50 obtained with UO-31 for CC#CC(O)(C(=O)OC1CCCN(C)C1)C1=CC=CCC1 (stereo unspecified) .
> 100 µM (inactive)

Identify measured GI50 obtained with UO-31 for OCCC1(O)CCC(O)CC1 (stereo unspecified) .
> 100 µM (inactive)

Identify measured GI50 obtained with UO-31 for O=c1c2ccccc2nc2[nH][nH]c(=S)n12 .
> 100 µM (inactive)
